Values were extracted from paper PMC12037410.

- experimental system: BMAL1 (Homo sapiens)
- Sequence (O00327 338-449): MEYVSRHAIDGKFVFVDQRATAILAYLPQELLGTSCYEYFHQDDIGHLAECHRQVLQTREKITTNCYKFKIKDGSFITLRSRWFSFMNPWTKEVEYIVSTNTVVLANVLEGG
- Parameters: PASB domain (residues 338–449); Protein thermal shift (PTS) fragment screen on recombinant human BMAL1(PASB), shift of melting temperature
- test settings: dTmB; binder
measured quantity: Bmal1(PASB) dTmB (°C)
Lab book: enter the figure in °C, no units written.

For the molecule COc1cc2c(cc1O)CCN[C@H]2C [Prestw-Frag-1063, Compound 388] , report Bmal1(PASB) dTmB. -0.57

For the molecule COc1ccc(CCN)cc1O [Prestw-Frag-1064, Compound 320] , report Bmal1(PASB) dTmB. -0.32

For the molecule COCCOC(=O)c1ccc(N)cc1 [Prestw-Frag-2453, Compound 317] , report Bmal1(PASB) dTmB. -0.58

For the molecule c1ccc(C(c2ccccc2)n2cncn2)cc1 [Prestw-Frag-2645, Compound 443] , report Bmal1(PASB) dTmB. -2.46

For the molecule c1ccc(CC2CCNCC2)cc1 [Prestw-Frag-1868, Compound 296] , report Bmal1(PASB) dTmB. -0.76

For the molecule C(=C\c1ccccc1)/CN1CCNCC1 [Prestw-Frag-1163, Compound 295] , report Bmal1(PASB) dTmB. -0.92

For the molecule NC(=O)c1ccccc1O [Prestw-Frag-1439, Compound 86] , report Bmal1(PASB) dTmB. 0.06

For the molecule O=C1CC2(CCCC2)CC(=O)N1 [Prestw-Frag-3680, Compound 36] , report Bmal1(PASB) dTmB. -2.38

For the molecule c1ccc2c(c1)NCCO2 [Prestw-Frag-3732, Compound 54] , report Bmal1(PASB) dTmB. 0.57
